compounds and their reported pEC50
Molecular target: GLP-1 Receptor (Homo sapiens, UniProt P43220)
Sequence (P43220 24-463, species assumed): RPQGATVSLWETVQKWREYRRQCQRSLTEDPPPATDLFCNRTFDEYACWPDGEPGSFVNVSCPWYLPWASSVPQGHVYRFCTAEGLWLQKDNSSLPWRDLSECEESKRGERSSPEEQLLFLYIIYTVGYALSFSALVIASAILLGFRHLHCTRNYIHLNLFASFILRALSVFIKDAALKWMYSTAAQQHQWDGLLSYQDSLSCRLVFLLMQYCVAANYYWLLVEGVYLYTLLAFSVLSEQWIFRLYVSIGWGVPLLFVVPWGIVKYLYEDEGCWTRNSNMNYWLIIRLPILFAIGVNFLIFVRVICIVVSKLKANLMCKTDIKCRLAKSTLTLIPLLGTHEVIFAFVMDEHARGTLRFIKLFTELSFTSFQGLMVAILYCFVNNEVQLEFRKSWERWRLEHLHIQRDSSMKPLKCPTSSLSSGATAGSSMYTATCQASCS
Assay: GLP-1R agonist cAMP stimulation assay (HEK293/GLP1R/CRE-LUC cells, cAMP dynamic 2 Kit)
Details: HEK293/CRE-Luc cell line stably expressing the GLP-1 Receptor, 30 min at 37° C.
pEC50 here is simply -log10 of the concentration when that concentration is written in mol/L.

Entry under review: CC1(c2ccc(C#N)cc2F)Oc2cccc(C3CCN(Cc4nc5cc(-c6nnc(C7CC7)[nH]6)cnc5n4C[C@@H]4CCO4)CC3)c2O1 (stereo partly drawn) [Compound 276a] . Reported pEC50?
9.25

Entry under review: Fc1cc(Cl)ccc1COc1cc(C2=CCN(Cc3nc4cc(-c5nnc(C(F)(F)F)[nH]5)ncc4n3C[C@@H]3CCO3)CC2)ccc1F [Compound 297a] . Reported pEC50?
10.01

Entry under review: Fc1cc(Cl)ccc1COc1cc(N2CCN(Cc3nc4cc(-c5nnc(C(F)(F)F)[nH]5)ncc4n3C[C@@H]3CCO3)CC2)ccc1F [Compound 456a] . Reported pEC50?
10.07

---

Molecular target: GLP-1 Receptor (Homo sapiens, UniProt P43220)
Test: GLP-1R agonist cAMP stimulation assay (HEK293/GLP1R/CRE-LUC cells, cAMP dynamic 2 Kit)
Assay type: cell-based
Conditions: HEK293/CRE-Luc cell line stably expressing the GLP-1 Receptor, 30 min at 37° C.
compounds and their reported EC50
Give a bare numeral; the unit nM is implied.

- CO[C@H](C)Cn1c(CN2CCC(c3cccc4c3O[C@@](C)(c3ccc(Cl)cn3)O4)CC2)nc2cc(-c3nnc(C(F)(F)F)[nH]3)nnc21 [Compound 473a]: 0.46

# returns recorded EC50 (system: GLP-1 Receptor (Homo sapiens, UniProt P43220)) for Fc1cc(Cl)ccc1COc1nccc(C2CCN(Cc3nc4cc(-c5nnc(C(F)(F)F)[nH]5)nnc4n3C[C@@H]3CCO3)CC2)n1 [Compound 508a]
0.42

# returns recorded EC50 (system: GLP-1 Receptor (Homo sapiens, UniProt P43220)) for CC(=O)Nc1cnc2c(c1)nc(CN1CCC(c3cccc(OCc4ccc(Cl)cc4F)n3)CC1)n2C[C@@H]1CCO1 [Compound 131a]
6.3

# returns recorded EC50 (system: GLP-1 Receptor (Homo sapiens, UniProt P43220)) for CC1(c2ccc(Cl)cc2F)Oc2cccc(C3=CCN(Cc4nc5cc(-c6nnc(C(F)(F)F)[nH]6)ccc5n4C[C@@H]4CCO4)CC3)c2O1 (stereo partly drawn) [Compound 256a]
0.23

---

Target: GLP-1 Receptor (Homo sapiens)
Assay: GLP-1R agonist cAMP stimulation assay (HEK293/GLP1R/CRE-LUC cells, cAMP dynamic 2 Kit)
Conditions: HEK293/CRE-Luc cell line stably expressing the GLP-1 Receptor, 30 min at 37° C.
compounds and their reported EC50
Give a bare numeral; the unit nM is implied.

Previously resolved entries follow.
- Cn1ccc(-c2ccc3c(c2)nc(CN2CCC(c4cccc(OCc5ccc(Cl)cc5F)n4)CC2)n3C[C@@H]2CCO2)n1 [Compound 124a]: 0.78
- C[C@]1(c2ccc(C#N)cc2F)Oc2cccc(C3CCN(Cc4nc5cc(-c6nnc(C(F)(F)F)[nH]6)nnc5n4C[C@@H]4CCO4)CC3)c2O1 [Compound 447a]: 0.019
- O=C(O)Cc1ccc2c(c1)nc(CN1CCC(c3cccc(OCc4ccc(Cl)cc4F)n3)CC1)n2C[C@@H]1CCO1 [Compound 110a]: 15.9
- CC1(c2ccc(Cl)cn2)Oc2cccc(C3CCN(Cc4nc5cc(-c6nnc(C7CC7)[nH]6)ccc5n4C[C@@H]4CCO4)CC3)c2O1 (stereo partly drawn) [Compound 270a]: 0.86
- O=C(Nc1ccc2c(c1)nc(CN1CCC(c3cccc(OCc4ccc(Cl)cc4F)n3)CC1)n2C[C@@H]1CCO1)C1COC1 [Compound 104a]: 0.207

Entry under review: CO[C@H](C)Cn1c(CN2CCC(c3cccc4c3O[C@@](C)(c3ccc(Cl)cc3F)O4)CC2)nc2cc(-c3nnc(C(F)(F)F)[nH]3)ncc21 [Compound 418a] . Reported EC50?
0.095

Entry under review: CC1(c2ccc(Cl)cn2)Oc2cccc(C3=CCN(Cc4nc5cc(-c6nnc(C7CC7)[nH]6)cnc5n4C[C@@H]4CCO4)CC3)c2O1 (stereo partly drawn) [Compound 416a] . Reported EC50?
14

Entry under review: N#Cc1ccc(COc2nc(C3CCN(Cc4nc5cc(-c6nnc(C(F)(F)F)[nH]6)nnc5n4C[C@@H]4CCO4)CC3)ccc2F)c(F)c1 [Compound 517a] . Reported EC50?
0.043

Entry under review: CC1(c2ccc(F)cc2Cl)Oc2cccc(C3CCN(Cc4nc5cc(-c6nnc(C(F)(F)F)[nH]6)ccc5n4C[C@@H]4CCO4)CC3)c2O1 (stereo partly drawn) [Compound 404a] . Reported EC50?
0.045

Entry under review: O=C(Nc1ccc2c(c1)nc(CN1CCC(c3cccc(OCc4ccccc4)n3)CC1)n2C[C@@H]1CCO1)c1cccnc1 [Compound 204a] . Reported EC50?
0.84

Entry under review: C[C@H]1CN(c2ccc(F)c(OCc3ccc(Cl)cc3F)c2)CCN1Cc1nc2cc(-c3nnc(C(F)(F)F)[nH]3)nnc2n1C[C@@H]1CCO1 [Compound 518a] . Reported EC50?
0.41

Entry under review: Fc1cc(Cl)ccc1COc1nc(C2CCN(Cc3nc4cc(-c5nnc(C(F)(F)F)[nH]5)ncc4n3C[C@@H]3CCO3)CC2)ccc1F [Compound 472a] . Reported EC50?
0.012
